Test: Clearance in human hepatocytes at 1 uM measured up to 6 hrs by LC-MS/MS analysis relative to hepatic blood flow
Format: ADME, cell-based, Hepatocyte
Conditions: read-out: CLH
assay.metric: hepatic extraction ratio at 6 h, 1 µM

Some compounds with recorded hepatic extraction ratio at 6 h, 1 µM:
| entry.smiles | hepatic extraction ratio at 6 h, 1 µM |
| --- | --- |
| CNC(=O)c1sc2ncn(Cc3nc(C[C@H](O)c4ccc5c(c4)OCO5)no3)c(=O)c2c1C | 0.24 |
| CNC(=O)c1sc2ncn(Cc3nc(C[C@H](O)c4ccc(Cl)cc4)no3)c(=O)c2c1C | 0.29 |
| Cc1c(C(N)=O)sc2ncn(Cc3nc(C[C@H](O)c4ccc(Cl)cc4)no3)c(=O)c12 | 0.25 |

P = O=C1NCCc2c1sc1ncn(Cc3nc(C[C@H](O)c4ccc(Cl)cc4)no3)c(=O)c21
Q = Cc1c(C(=O)NCC(C)(C)O)sc2ncn(Cc3nc(C[C@H](O)c4ccc(Cl)cc4)no3)c(=O)c12
Looking only at measured hepatic extraction ratio at 6 h, 1 µM, which entry is lower, P or Q ? // respond with label for picked entry
Q

====

Assay: Clearance in human liver microsomes at 1 uM followed by NADPH addition measured up to 60 mins by LC-MS/MS analysis relative to hepatic blood flow
Format: ADME, Microsome
Details: read-out: CLH
assay.metric: hepatic extraction ratio at 1 h, 1 µM

| entry.smiles | value.reported |
| --- | --- |
| CNC(=O)c1sc2ncn(Cc3nc(C[C@H](O)c4ccc5c(c4)OCO5)no3)c(=O)c2c1C | 0.29 |
| Cc1c(C(=O)NCC(F)F)sc2ncn(Cc3nc(C[C@H](O)c4ccc(Cl)cc4)no3)c(=O)c12 | 0.24 |

====

Test: Clearance in human hepatocytes at 1 uM measured up to 6 hrs by LC-MS/MS analysis relative to hepatic blood flow
Format: ADME, cell-based, Hepatocyte
Details: read-out: CLH
assay.metric: hepatic extraction ratio at 6 h, 1 µM

Some molecules with recorded hepatic extraction ratio at 6 h, 1 µM:
| entry.smiles | hepatic extraction ratio at 6 h, 1 µM |
| --- | --- |
| Cc1c(C(=O)NCC(F)F)sc2ncn(Cc3nc(C[C@H](O)c4ccc(Cl)cc4)no3)c(=O)c12 | 0.36 |
| Cc1c(C(N)=O)sc2ncn(Cc3nc(C[C@H](O)c4ccc5c(c4)OCO5)no3)c(=O)c12 | 0.24 |
| NC(=O)c1sc2ncn(Cc3nc(C[C@H](O)c4ccc(Cl)cc4)no3)c(=O)c2c1Cl | 0.39 |

P = Cc1c(C(N)=O)sc2ncn(Cc3nc(C[C@H](O)c4cc5ccccc5o4)no3)c(=O)c12
Q = Cc1c(C(N)=O)sc2ncn(Cc3nc(C[C@H](O)c4cc(F)cc(F)c4)no3)c(=O)c12
Looking only at measured hepatic extraction ratio at 6 h, 1 µM, which entry is lower, P or Q ? // respond with label for picked entry
Q
